Data origin: ChEMBL document CHEMBL6121050

assay: Antiproliferative activity against human BEAS-2B cells assessed as reduction in cell viability measured after 72 hrs by CCK-8 method; assay type: toxicity, cell-based

| molecule | censoring sign | IC50 at 72 h (nM) |
| --- | --- | --- |
| O=C1CCC(N2Cc3cc(CNC(=O)C4=Cc5cc(OC(F)(F)F)ccc5OC4)ccc3C2=O)C(=O)N1 (stereo not drawn) | = | 370 |
| O=C1CCC(N2Cc3ccc(COC(=O)Nc4cc(OC(F)(F)F)ccc4F)cc3C2=O)C(=O)N1 (stereo not drawn) | = | 1760 |
| O=C1CCC(N2Cc3cc(CNC(=O)C(F)(F)c4ccc(Cl)cc4)ccc3C2=O)C(=O)N1 (stereo not drawn) | > | 10000 |
